- Test system: 855422-203-R-J1-PDC spheroids with HUVEC/MSC, viability
- assay-comment: Anticancer human tumor 855422-203-R-J1-PDC patient-derived bladder carcinoma cell line growth inhibition [PI3K]
- condition-parameters: second compound 1 µM; first compound 10 µM; hits give low values
reported-property: viability, T/C (%)
Write the value in % as a bare number.

## Task Any idea what its viability, T/C is? The molecule is C=CC(=O)N1CCN(c2nc(=O)n(-c3c(C)ccnc3C(C)C)c3nc(-c4c(O)cccc4F)c(F)cc23)C(C)C1 (stereo not drawn) + CC(Nc1ncnc2nc[nH]c12)c1cc2cccc(Cl)c2c(=O)n1-c1ccccc1
## Result 110

## Task So what does the record say about viability, T/C for Cn1ncc(Cl)c1-c1cc(C(=O)NC(CN)Cc2cccc(F)c2)sc1Cl (stereo not drawn) + COc1c(OCCCN2CCOCC2)ccc2c3n(c(=NC(=O)c4cnc(N)nc4)nc12)CCN3 ?
## Result 1.32

## Task Dear colleague, I am looking for the recorded viability, T/C of the following molecule: C[C@@H](NC(=O)c1ncnc(N)c1Cl)c1ncc(C(=O)Nc2cc(C(F)(F)F)c(Cl)cn2)s1 + CC(Nc1ccc2c(c1)OCCn1cc(N3C(=O)OCC3C(F)F)nc1-2)C(N)=O
## Result 14.1

* * *

Readings of viability, T/C for the listed compounds
- System: 855422-203-R-J1-PDC spheroids with HUVEC/MSC, viability
- assay-comment: Anticancer human tumor 855422-203-R-J1-PDC cell line growth inhibition [PI3K];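 also: agents incubated with spheroids for one week before read-out; 100% = DMSO vehicle-treated control wells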
- condition-parameters: second compound 0.316 µM; first compound 0.3 µM; hits give low values
The answer is to be given in %; state only the numeric part.

Example results:
{"columns": ["compound", "unit-name", "viability, T/C"],
 "data": [
  ["Cn1cnc2c(F)c(Nc3ccc(Br)cc3Cl)c(C(=O)NOCCO)cc21 + CC(Nc1ccc2c(c1)OCCn1cc(N3C(=O)OCC3C(F)F)nc1-2)C(N)=O", "%", 38.3],
  ["Cn1cnc2c(F)c(Nc3ccc(Br)cc3Cl)c(C(=O)NOCCO)cc21 + CC(Nc1ncnc2nc[nH]c12)c1cc2cccc(Cl)c2c(=O)n1-c1ccccc1", "%", 103],
  ["Cn1cnc2c(F)c(Nc3ccc(Br)cc3Cl)c(C(=O)NOCCO)cc21 + COc1c(OCCCN2CCOCC2)ccc2c3n(c(=NC(=O)c4cnc(N)nc4)nc12)CCN3", "%", 4.82]
]}

## Task May I ask what viability, T/C has been recorded for Cn1cnc2c(F)c(Nc3ccc(Br)cc3Cl)c(C(=O)NOCCO)cc21 + Cc1nc(NC(=O)N2CCCC2C(N)=O)sc1-c1ccnc(C(C)(C)C(F)(F)F)c1 ?
## Result 75.7

* * *

- Tested on: 855422-203-R-J1-PDC spheroids with HUVEC/MSC, viability
- assay-comment: Anticancer human tumor 855422-203-R-J1-PDC cell line growth inhibition [PI3K]; active = viability on the fitted dose curve at most 10% of control; inactive = the rest;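 also: agents incubated with spheroids for one week before read-out; 100% = DMSO vehicle-treated control wells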
- condition-parameters: second compound 1 µM; first compound 0.1 µM
Response enum: yes (1) (active), no (0) (inactive)

## Task Test call, this compound: CC1(C)CCC(Nc2ncc(C(F)(F)F)c(-c3c[nH]c4c(P(C)(C)=O)c(C#N)ccc34)n2)CN1 (stereo not drawn) + COc1c(OCCCN2CCOCC2)ccc2c3n(c(=NC(=O)c4cnc(N)nc4)nc12)CCN3
## Result yes (1)

## Task Recorded test call requested for CCN1CCN(Cc2ccc(Nc3ncc(F)c(-c4cc(F)c5nc(C)n(C(C)C)c5c4)n3)nc2)CC1 + CC(Nc1ncnc2nc[nH]c12)c1cc2cccc(Cl)c2c(=O)n1-c1ccccc1
## Result no (0)

## Task Write down the call the test reported for this compound. Item: CCCS(=O)(=O)Nc1ccc(F)c(C(=O)c2c[nH]c3ncc(-c4ccc(Cl)cc4)cc23)c1F + COc1c(OCCCN2CCOCC2)ccc2c3n(c(=NC(=O)c4cnc(N)nc4)nc12)CCN3
## Result yes (1)

* * *

- System: 855422-203-R-J1-PDC spheroids with HUVEC/MSC, viability
- assay-comment: Anticancer human tumor 855422-203-R-J1-PDC cell line growth inhibition [PI3K];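 also: agents incubated with spheroids for one week before read-out; 100% = DMSO vehicle-treated control wells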
- condition-parameters: second compound 0.0316 µM; first compound 0.316 µM; hits give low values
Doc: threshold 80% (exclusive). Items with viability, T/C beneath it return Yes; others return No.

{"columns": ["compound", "label-value"],
 "data": [
  ["CC(Cn1ccc(-c2ccc(C#N)c(Cl)c2)n1)NC(=O)c1cc(C(C)O)[nH]n1 (configuration not stated) + CC(Nc1ncnc2nc[nH]c12)c1cc2cccc(Cl)c2c(=O)n1-c1ccccc1", "No"],
  ["Cn1nccc1Nc1nccc(-c2ccn(C(CO)c3ccc(Cl)c(F)c3)c(=O)c2)n1 (configuration not stated) + Cc1nc(NC(=O)N2CCCC2C(N)=O)sc1-c1ccnc(C(C)(C)C(F)(F)F)c1", "No"],
  ["C#Cc1c(F)ccc2cc(O)cc(-c3ncc4c(N5CC6CCC(C5)N6)nc(OCC56CCCN5CC(F)C6)nc4c3F)c12 (configuration not stated) + COc1c(OCCCN2CCOCC2)ccc2c3n(c(=NC(=O)c4cnc(N)nc4)nc12)CCN3", "Yes"]
]}

## Task Here's an entry: CC(Cn1ccc(-c2ccc(C#N)c(Cl)c2)n1)NC(=O)c1cc(C(C)O)[nH]n1 (configuration not stated) + COc1c(OCCCN2CCOCC2)ccc2c3n(c(=NC(=O)c4cnc(N)nc4)nc12)CCN3 . Is its viability, T/C below 80%?
## Result Yes

## Task For this compound, is viability, T/C lower than 80%? Cn1nccc1Nc1nccc(-c2ccn(C(CO)c3ccc(Cl)c(F)c3)c(=O)c2)n1 (configuration not stated) + CC(Nc1ncnc2nc[nH]c12)c1cc2cccc(Cl)c2c(=O)n1-c1ccccc1
## Result No

## Task Strictly below 80% in viability, T/C? C[C@@H](NC(=O)c1ncnc(N)c1Cl)c1ncc(C(=O)Nc2cc(C(F)(F)F)c(Cl)cn2)s1 + CC(Nc1ncnc2nc[nH]c12)c1cc2cccc(Cl)c2c(=O)n1-c1ccccc1
## Result No

## Task Input C=CC(=O)N1CCN(c2nc(=O)n(-c3c(C)ccnc3C(C)C)c3nc(-c4c(O)cccc4F)c(F)cc23)C(C)C1 (configuration not stated) + Cc1nc(NC(=O)N2CCCC2C(N)=O)sc1-c1ccnc(C(C)(C)C(F)(F)F)c1 ; condition: viability, T/C strictly below 80%. Does it hold?
## Result No

## Task A record lists Cn1ncc(Cl)c1-c1cc(C(=O)NC(CN)Cc2cccc(F)c2)sc1Cl (configuration not stated) + CC(Nc1ncnc2nc[nH]c12)c1cc2cccc(Cl)c2c(=O)n1-c1ccccc1 . Is its viability, T/C below 80%?
## Result Yes

## Task Would you kindly verify if viability, T/C of CC1(C)CCC(CN2CCN(c3ccc(C(=O)NS(=O)(=O)c4ccc(NCC5CCOCC5)c([N+](=O)[O-])c4)c(Oc4cnc5[nH]ccc5c4)c3)CC2)=C(c2ccc(Cl)cc2)C1 + Cc1nc(NC(=O)N2CCCC2C(N)=O)sc1-c1ccnc(C(C)(C)C(F)(F)F)c1 is strictly less than 80%?
## Result No

* * *

Listed below: viability, T/C values for each entry.
- Test system: 855422-203-R-J1-PDC spheroids with HUVEC/MSC, viability
- assay-comment: Anticancer human tumor 855422-203-R-J1-PDC cell line growth inhibition [PI3K];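 also: agents incubated with spheroids for one week before read-out; 100% = DMSO vehicle-treated control wells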
- condition-parameters: second compound 0.01 µM; first compound 0.1 µM; hits give low values
All answers are understood in %, so give the number only.

Some solved cases for reference:
{"columns": ["compound", "tested-target", "unit-name", "viability, T/C"],
 "data": [
  ["CCCS(=O)(=O)Nc1ccc(F)c(C(=O)c2c[nH]c3ncc(-c4ccc(Cl)cc4)cc23)c1F + CC(Nc1ccc2c(c1)OCCn1cc(N3C(=O)OCC3C(F)F)nc1-2)C(N)=O", "855422-203-R-J1-PDC spheroids with HUVEC/MSC, viability", "%", 85.2],
  ["Cn1nccc1Nc1nccc(-c2ccn(C(CO)c3ccc(Cl)c(F)c3)c(=O)c2)n1 (stereo not given) + COc1c(OCCCN2CCOCC2)ccc2c3n(c(=NC(=O)c4cnc(N)nc4)nc12)CCN3", "855422-203-R-J1-PDC spheroids with HUVEC/MSC, viability", "%", 91.7],
  ["C=CC(=O)N1CCN(c2nc(=O)n(-c3c(C)ccnc3C(C)C)c3nc(-c4c(O)cccc4F)c(F)cc23)C(C)C1 (stereo not given) + CC(Nc1ccc2c(c1)OCCn1cc(N3C(=O)OCC3C(F)F)nc1-2)C(N)=O", "855422-203-R-J1-PDC spheroids with HUVEC/MSC, viability", "%", 98.5],
  ["CC(C)NCC(C(=O)N1CCN(c2ncnc3c2C(C)CC3O)CC1)c1ccc(Cl)cc1 (stereo not given) + CC(Nc1ccc2c(c1)OCCn1cc(N3C(=O)OCC3C(F)F)nc1-2)C(N)=O", "855422-203-R-J1-PDC spheroids with HUVEC/MSC, viability", "%", 65.8]
]}

Consider the additional compound presented here.
## Task What does the data say about its viability, T/C? Entry: C[C@@H](NC(=O)c1ncnc(N)c1Cl)c1ncc(C(=O)Nc2cc(C(F)(F)F)c(Cl)cn2)s1 + CC(Nc1ccc2c(c1)OCCn1cc(N3C(=O)OCC3C(F)F)nc1-2)C(N)=O
## Result 86.2
